tested on: MRSA 13-23; test: MIC, agar dilution, MRSA 13-23; format: cell-based; settings: Staphylococcus aureus; MRSA 13-23; read-out: MIC
Test Readout: MIC

Some compounds with known MIC results, for comparison:
INSERT INTO results (compound, readout_value) VALUES
  ('COc1ccc2c(c[n+]3c4c2ccc2c5c(cc(c24)CC3)OCO5)c1OC [CBBR, cycloberberine]', '> 64 µg/mL'),
  ('COc1ccc2c(c[n+]3ccc4cc5c(c6c(Cc7ccccc7C)cc2c3c46)OCO5)c1O [13g]', '> 64 µg/mL'),
  ('COc1ccc2c(c[n+]3c4c2ccc2c(OC)c(OC)cc(c24)CC3)c1O [compound 6]', '> 64 µg/mL');

Need MIC, item COc1ccc2c(c[n+]3ccc4cc5c(c6c(Cc7cccc(C#N)c7)cc2c3c46)OCO5)c1O [13n]
> 64 µg/mL
